experimental.target: UniProtKB P29376
Sequence (P29376 17-864): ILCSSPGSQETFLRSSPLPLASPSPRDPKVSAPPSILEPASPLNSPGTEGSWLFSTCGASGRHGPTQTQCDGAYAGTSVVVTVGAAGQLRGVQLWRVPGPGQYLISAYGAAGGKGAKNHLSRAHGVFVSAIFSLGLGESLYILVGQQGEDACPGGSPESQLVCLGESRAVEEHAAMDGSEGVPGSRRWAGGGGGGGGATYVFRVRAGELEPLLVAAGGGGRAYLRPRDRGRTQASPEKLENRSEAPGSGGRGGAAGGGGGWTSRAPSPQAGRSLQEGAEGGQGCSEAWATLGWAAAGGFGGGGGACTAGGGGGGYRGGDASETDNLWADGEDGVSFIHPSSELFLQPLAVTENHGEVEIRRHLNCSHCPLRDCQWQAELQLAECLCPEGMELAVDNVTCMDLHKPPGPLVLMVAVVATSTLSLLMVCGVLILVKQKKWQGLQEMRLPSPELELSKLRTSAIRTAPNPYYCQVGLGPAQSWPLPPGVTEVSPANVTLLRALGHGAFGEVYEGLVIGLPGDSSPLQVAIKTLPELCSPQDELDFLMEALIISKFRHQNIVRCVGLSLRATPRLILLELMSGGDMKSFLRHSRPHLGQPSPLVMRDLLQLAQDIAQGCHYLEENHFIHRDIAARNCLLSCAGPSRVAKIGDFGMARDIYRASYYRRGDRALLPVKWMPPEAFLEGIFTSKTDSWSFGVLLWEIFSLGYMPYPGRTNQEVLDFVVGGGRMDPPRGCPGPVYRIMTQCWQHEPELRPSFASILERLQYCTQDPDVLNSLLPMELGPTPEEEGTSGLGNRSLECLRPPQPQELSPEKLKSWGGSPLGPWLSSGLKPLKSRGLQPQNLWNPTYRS
assay.comment: SelectScreen kinase specificity survey
conditions.used: estimated, abridged dose response curve, read-out: Kinase inhibitory activity EC50
pEC50: −log10 of the molar value.
measured.metric: pEC50

>  <compound>
CN(C)CCCNc1ccc2ncn3c4ccc5[nH]ncc5c4c(=O)c1c23

>  <experimental.target>
UniProtKB P29376

>  <pEC50>
< 5.30

$$$$

Could you tell me which pEC50 is on file for CCN(CC)CCNc1ccc2ncn3c4ccc(O)cc4c(=O)c1c23 [Symadex, reference compound] ?
< 5.30

* * *

Parameter: pEC50. Scope: all listed entries.
experimental.target: UniProt P29323
Sequence (P29323 19-1055): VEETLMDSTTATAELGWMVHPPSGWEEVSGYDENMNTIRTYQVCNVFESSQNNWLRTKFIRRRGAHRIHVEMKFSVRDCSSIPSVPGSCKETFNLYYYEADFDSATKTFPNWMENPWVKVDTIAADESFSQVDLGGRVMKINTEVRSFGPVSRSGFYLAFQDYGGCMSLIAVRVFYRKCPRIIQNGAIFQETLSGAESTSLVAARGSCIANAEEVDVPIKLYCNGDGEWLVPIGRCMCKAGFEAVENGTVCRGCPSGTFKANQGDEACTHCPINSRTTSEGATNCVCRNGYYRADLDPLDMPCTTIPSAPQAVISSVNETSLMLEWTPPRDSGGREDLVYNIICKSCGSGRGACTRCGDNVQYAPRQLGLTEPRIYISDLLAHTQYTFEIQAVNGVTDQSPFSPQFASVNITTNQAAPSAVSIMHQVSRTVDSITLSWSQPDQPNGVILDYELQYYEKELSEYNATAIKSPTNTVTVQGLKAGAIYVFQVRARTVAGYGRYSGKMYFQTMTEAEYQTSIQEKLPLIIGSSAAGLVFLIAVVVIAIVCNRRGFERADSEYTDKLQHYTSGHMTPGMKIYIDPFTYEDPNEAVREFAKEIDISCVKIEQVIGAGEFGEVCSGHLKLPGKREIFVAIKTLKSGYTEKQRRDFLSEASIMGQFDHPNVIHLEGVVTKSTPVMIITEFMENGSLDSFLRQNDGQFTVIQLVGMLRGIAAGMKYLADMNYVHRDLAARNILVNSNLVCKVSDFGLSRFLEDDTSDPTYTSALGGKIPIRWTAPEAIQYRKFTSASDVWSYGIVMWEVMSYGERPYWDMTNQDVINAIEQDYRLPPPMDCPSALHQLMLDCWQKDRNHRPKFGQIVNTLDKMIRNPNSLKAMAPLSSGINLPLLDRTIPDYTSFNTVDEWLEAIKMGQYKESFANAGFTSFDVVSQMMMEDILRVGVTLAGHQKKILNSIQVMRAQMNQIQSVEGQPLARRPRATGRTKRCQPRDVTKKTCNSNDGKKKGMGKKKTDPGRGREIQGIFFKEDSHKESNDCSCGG
assay.comment: SelectScreen kinase specificity survey
conditions.used: estimated, abridged dose response curve, read-out: Kinase inhibitory activity EC50
pEC50: −log10 of the molar value.

>  <compound>
CCN(CC)CCNc1ccc2ncn3c4ccc(O)cc4c(=O)c1c23 [Symadex, reference compound]

>  <test.result>
< 5.30

$$$$

Now for another entry.
Could you tell me which pEC50 is on file for CN(C)CCCNc1ccc2ncn3c4ccc5[nH]ncc5c4c(=O)c1c23 ?
< 5.30

* * *

experimental.target: UniProt:P00519
Sequence (P00519 whole entry): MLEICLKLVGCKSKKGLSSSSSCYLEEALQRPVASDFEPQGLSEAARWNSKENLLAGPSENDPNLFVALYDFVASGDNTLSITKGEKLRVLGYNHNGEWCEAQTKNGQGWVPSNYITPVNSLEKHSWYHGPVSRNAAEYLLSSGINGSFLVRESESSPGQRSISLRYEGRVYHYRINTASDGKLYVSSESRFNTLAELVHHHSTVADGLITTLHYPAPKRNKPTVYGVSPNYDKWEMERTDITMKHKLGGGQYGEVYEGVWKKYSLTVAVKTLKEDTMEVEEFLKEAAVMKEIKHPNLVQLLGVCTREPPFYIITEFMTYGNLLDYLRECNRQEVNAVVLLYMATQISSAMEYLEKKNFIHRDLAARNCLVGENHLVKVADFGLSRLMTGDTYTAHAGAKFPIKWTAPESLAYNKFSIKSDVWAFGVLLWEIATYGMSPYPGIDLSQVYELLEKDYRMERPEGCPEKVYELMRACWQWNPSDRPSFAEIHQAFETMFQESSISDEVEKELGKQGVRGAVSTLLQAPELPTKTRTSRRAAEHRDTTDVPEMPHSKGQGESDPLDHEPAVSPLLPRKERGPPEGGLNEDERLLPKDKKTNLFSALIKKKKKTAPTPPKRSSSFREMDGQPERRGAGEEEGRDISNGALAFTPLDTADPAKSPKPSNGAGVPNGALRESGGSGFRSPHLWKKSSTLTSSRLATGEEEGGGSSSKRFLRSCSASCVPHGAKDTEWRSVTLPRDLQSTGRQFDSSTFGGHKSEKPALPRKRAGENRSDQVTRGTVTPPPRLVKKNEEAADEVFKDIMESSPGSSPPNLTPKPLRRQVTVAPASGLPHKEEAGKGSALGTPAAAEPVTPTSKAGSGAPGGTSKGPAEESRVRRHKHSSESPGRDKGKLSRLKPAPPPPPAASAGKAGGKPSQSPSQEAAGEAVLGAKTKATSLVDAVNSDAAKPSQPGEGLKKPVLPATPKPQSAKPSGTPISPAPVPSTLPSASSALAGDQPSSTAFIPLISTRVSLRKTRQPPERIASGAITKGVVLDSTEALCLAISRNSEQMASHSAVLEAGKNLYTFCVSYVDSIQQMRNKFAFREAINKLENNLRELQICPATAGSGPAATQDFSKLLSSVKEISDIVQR
assay.comment: SelectScreen kinase specificity survey
conditions.used: estimated, abridged dose response curve, read-out: Kinase inhibitory activity EC50
measured.metric: pEC50
pEC50 is a log-scale quantity: -log10 of the concentration expressed in molar.

Could you tell me which pEC50 is on file for CN(C)CCCNc1ccc2ncn3c4ccc5[nH]ncc5c4c(=O)c1c23 [Compound (IV)] ?
5.42
